All figures here come from paper PMC8841436.

- MEASUREMENT PROTOCOL: Plasma pharmacokinetics, part B
- MEASUREMENT CONTEXT: human, in vivo, 90 mg, AUC0‐24, MAD 90 mg q.d., Day 10, mean, n = 8
REPORTED ENDPOINT: AUC (ng·h/mL)

# COMPOUND, REPORTED ENDPOINT, RESULT UNITS, VAL
measured = [
    ("C=CC(=O)N1CCC[C@@H](n2c(=O)n(-c3ccc(Oc4ccccc4)cc3)c3c(N)nccc32)C1 [tolebrutinib]", "AUC", "ng·h/mL", 56.6),
]

* * *

- MEASUREMENT PROTOCOL: Plasma pharmacokinetics, part B
- MEASUREMENT CONTEXT: human, in vivo, 90 mg, Tmax, MAD 90 mg q.d., Day 1, median (min – max), n = 8

# STRUCTURE SMILES STRING, RESULT UNITS, Tmax
rows = [
    ("C=CC(=O)N1CCC[C@@H](n2c(=O)n(-c3ccc(Oc4ccccc4)cc3)c3c(N)nccc32)C1", "h", 1),
]

* * *

- MEASUREMENT PROTOCOL: Plasma pharmacokinetics, part B
- MEASUREMENT CONTEXT: human, in vivo, 30 mg, AUC0‐24, MAD 30 mg q.d., Day 1, mean, n = 8
REPORTED ENDPOINT: AUC (ng·h/mL)

# STRUCTURE SMILES STRING, VAL
records = [
    ("C=CC(=O)N1CCC[C@@H](n2c(=O)n(-c3ccc(Oc4ccccc4)cc3)c3c(N)nccc32)C1", 9.67),
]

* * *

- MEASUREMENT PROTOCOL: Plasma pharmacokinetics, part B
- MEASUREMENT CONTEXT: human, in vivo, 15 mg, Cmax, MAD 15 mg q.d., Day 10, mean, n = 8

# STRUCTURE SMILES STRING, RESULT UNITS, Cmax
rows = [
    ("C=CC(=O)N1CCC[C@@H](n2c(=O)n(-c3ccc(Oc4ccccc4)cc3)c3c(N)nccc32)C1", "ng/mL", 2.51),
]

* * *

- MEASUREMENT PROTOCOL: Plasma pharmacokinetics, part A
- Type: in vivo, human
- MEASUREMENT CONTEXT: human, in vivo, po, 5 mg, t 1/2, SAD, single oral 5 mg, fasting, mean, n = 6
REPORTED ENDPOINT: half-life (h)

# STRUCTURE SMILES STRING, REPORTED ENDPOINT, VAL
data = [
    ("C=CC(=O)N1CCC[C@@H](n2c(=O)n(-c3ccc(Oc4ccccc4)cc3)c3c(N)nccc32)C1", "half-life", 1.92),
]

* * *

- MEASUREMENT PROTOCOL: Plasma pharmacokinetics, part A
- Type: in vivo, human
- MEASUREMENT CONTEXT: human, in vivo, po, 120 mg

# STRUCTURE SMILES STRING, Cmax (ng/mL)
data = [
    ("C=CC(=O)N1CCC[C@@H](n2c(=O)n(-c3ccc(Oc4ccccc4)cc3)c3c(N)nccc32)C1", 32.3),
]

* * *

- MEASUREMENT PROTOCOL: Plasma pharmacokinetics, part B
- MEASUREMENT CONTEXT: human, in vivo, 15 mg, t 1/2, MAD 15 mg q.d., Day 1, mean, n = 8
REPORTED ENDPOINT: half-life (h)

# STRUCTURE SMILES STRING, VAL
records = [
    ("C=CC(=O)N1CCC[C@@H](n2c(=O)n(-c3ccc(Oc4ccccc4)cc3)c3c(N)nccc32)C1", 1.4),
]

* * *

- MEASUREMENT PROTOCOL: Plasma pharmacokinetics, part B
- MEASUREMENT CONTEXT: human, in vivo, 60 mg, Tmax, MAD 60 mg q.d., Day 10, median (min – max), n = 8
REPORTED ENDPOINT: Tmax (h)

# STRUCTURE SMILES STRING, VAL
measured = [
    ("C=CC(=O)N1CCC[C@@H](n2c(=O)n(-c3ccc(Oc4ccccc4)cc3)c3c(N)nccc32)C1", 1.5),
]

* * *

- MEASUREMENT PROTOCOL: Plasma pharmacokinetics, part B
- MEASUREMENT CONTEXT: human, in vivo, 60 mg, Cmax, MAD 60 mg q.d., Day 10, mean, n = 8

# STRUCTURE SMILES STRING, Cmax
measured = [
    ("C=CC(=O)N1CCC[C@@H](n2c(=O)n(-c3ccc(Oc4ccccc4)cc3)c3c(N)nccc32)C1", "6.69 ng/mL"),
]
